- target-system: Cytochrome P450 3A4 (Homo sapiens) (UniProt P08684)
- Sequence (P08684 whole entry, looked up): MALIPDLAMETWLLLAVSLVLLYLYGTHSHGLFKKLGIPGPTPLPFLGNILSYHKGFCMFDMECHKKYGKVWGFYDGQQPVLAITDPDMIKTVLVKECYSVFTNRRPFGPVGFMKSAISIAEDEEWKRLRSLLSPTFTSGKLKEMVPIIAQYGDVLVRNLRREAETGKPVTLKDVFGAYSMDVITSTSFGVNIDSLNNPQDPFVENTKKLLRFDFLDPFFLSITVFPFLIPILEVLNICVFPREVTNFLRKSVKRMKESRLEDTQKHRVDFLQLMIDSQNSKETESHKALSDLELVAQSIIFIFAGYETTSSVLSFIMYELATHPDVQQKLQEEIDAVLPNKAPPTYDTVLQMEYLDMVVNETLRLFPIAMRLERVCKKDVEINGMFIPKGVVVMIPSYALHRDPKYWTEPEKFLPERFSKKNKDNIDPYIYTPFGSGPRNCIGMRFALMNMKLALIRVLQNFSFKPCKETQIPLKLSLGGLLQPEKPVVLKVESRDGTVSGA
- assay-name: Cytochrome panel assay with activity outcomes; further: on the % scale 0 is the no-effect control and ±100 the full control effect
- condition-context: recombinant CYP, pro-luciferin dealkylation, luminescence, p450-cyp3a4; series mostly up to 57.1 µM
In all, about 16,000 compounds went through this assay and about 5,100 (32%) were called active. Roughly 25% stayed inconclusive and do not appear here. The list shows a part of the results.
Assign activity, negative = inhibition to each entry below.

In the examples that follow, each entry is paired with its recorded activity, negative = inhibition.
[
  {
    "compound": "Cc1cc2ccc(OC(=O)c3ccc(N=C(N)N)cc3)cc2oc1=O",
    "endpoint-value": "-27.2% [at 11.4 µM] (inactive)"
  },
  {
    "compound": "O=C(O)C(Cc1cccs1)C(=O)O",
    "endpoint-value": "-8.79% [at 11.4 µM] (inactive)"
  },
  {
    "compound": "CC(C)=CCC/C(C)=C/CO/N=C1/C[C@@H](O)[C@@H](O)[C@@H]2[C@@H]3C(=O)N(C(C)(C)C)C(=O)[C@H]3CC[C@@H]12",
    "endpoint-value": "-26.7% [at 11.4 µM] (inactive)"
  },
  {
    "compound": "NNC(=O)[C@@H](O)[C@H](O)[C@H](O)CO",
    "endpoint-value": "0.183% [at 11.4 µM] (inactive)"
  },
  {
    "compound": "CC(=O)OC[C@H]1O[C@@H](ON=C(C)C)[C@H](OC(C)=O)[C@@H](OC(C)=O)[C@H]1OC(C)=O",
    "endpoint-value": "-17.9% [at 11.4 µM] (inactive)"
  }
]

Each compound below has a recorded value; state its activity, negative = inhibition.
1. CC1(C)OC[C@@H]2O[C@H](n3cnc4c(N)nc(Cl)nc43)[C@@H](OS(C)(=O)=O)[C@@H]2O1
2. COC(=O)c1nn(-c2ccccc2)c(=O)cc1Oc1ccccc1
3. Cc1ccccc1S(=O)(=O)O[C@@H]1NS(=O)(=O)c2ccccc21
4. CC(C)NC(=O)COC(=O)c1cc(=O)[nH]c2ccccc12
5. N#Cc1c(-c2cccs2)nc(SCC(=O)c2cccs2)[nH]c1=O
6. Cn1c(=O)c2[nH]c(/N=N\N3CCN(CCO)CC3)nc2n(C)c1=O
7. O=C1C(Cl)=C(Nc2ccc(S(=O)(=O)Nc3ccccn3)cc2)C(=O)c2ccccc21
8. C/C(=N/S(=O)(=O)c1ccc(Cl)c(Cl)c1)OCC(C)(C)C

["-4.98% [at 11.4 µM] (inactive)", "-20.9% [at 11.4 µM] (inactive)", "-3.69% [at 11.4 µM] (inactive)", "1.83% [at 2.29 µM] (inactive)", "-3.29% [at 2.29 µM] (inactive)", "-17% [at 11.4 µM] (inactive)", "-10.8% [at 11.4 µM] (inactive)", "-5.85% [at 11.4 µM] (inactive)"]

Dear colleague, could you send me activity, negative = inhibition for each of the items below? Thanks.
1. CCCCN(CC)S(=O)(=O)c1ccc(C(=O)Nc2nnc(CSC)o2)cc1
2. COCCN(C(=O)c1ccco1)c1nnc(-c2ccc(OC)cc2)s1
3. CC(C)(C)OC(=O)[C@H]([C@@H]1N[C@@H](C(=O)O)C(C)(C)S1)N1C(=O)c2ccccc2C1=O
4. CCOC(=O)CCN1C(=O)[C@H]2[C@H]3[C@H](O)[C@H](O)C/C(=N/O[C@@H]4O[C@@H](COC(C)=O)[C@@H](OC(C)=O)[C@@H](OC(C)=O)[C@H]4OC(C)=O)[C@H]3CC[C@@H]2C1=O
5. C/C=C\C1=C(CO)C(=O)C2O[C@]2(CC=C(C)C)C1=O (some centres undefined)
6. CCCCCn1c(=O)c(C(=O)c2ccccc2)nc2ccccc21

1: 2.56% [at 11.4 µM] (inactive); 2: -28.3% [at 2.29 µM] (inactive); 3: -8.52% [at 11.4 µM] (inactive); 4: -10.4% [at 11.4 µM] (inactive); 5: -13.4% [at 11.4 µM] (inactive); 6: -5.99% [at 2.29 µM] (inactive)

FYI, the data here is from PubChem BioAssay AID1851.
